test system: SARS-CoV-2; format: cell-based; conditions: 120 Hours Post-Infection, EPIAIRWAY tissue, MOI 0.1
experimental-readout: pEC50
Field pEC50 (float): negative decimal logarithm of the concentration in molar.

Q) Which pEC50 is listed for AS1411: GRO nucleolin-binding DNA aptamer, SEQ ID NO:10, ggtggtggtg gttgtggtgg tggtgg ?
A) 6.19

---

tested on: SARS-CoV-2; format: cell-based; details: 72 Hours Post-Infection, EPIAIRWAY tissue, MOI 0.1
experimental-readout: EC50
Returns: string containing the numeric result and its unit.

Q) Name the reported EC50 value associated with the substance AS1411: GRO nucleolin-binding DNA aptamer, SEQ ID NO:10, ggtggtggtg gttgtggtgg tggtgg
A) 0.942 µM
